Every entry's value here was drawn from the supplement of paper PMC9170038.

Test system: MS2 coat protein
Assay: apparent KD of MS2 coat protein; designed switch direction (-1 OFF switch, 1 ON switch): -1; higher = weaker reporter binding
Settings: input ligand: none
# if value of apparent KD of MS2 coat protein reaches 0.04 µM, tag true; if it stays below, tag false

{"columns": ["SEQUENCE_DATA", "CAT"],
 "data": [
  ["ACAUGAGGAUCACCCAUGUGACAAGAAUGGCUGAUACAGAGAUAGGAUAUAGGUGCAUAUCUAACCUAGAAGGGUCAUGACUGG [Deportation 75 - Jieux - Exclusion NG 3] (Eterna round: R96, puzzle: Exclusion NG 3)", "false"],
  ["CUGUUACAUGAGGAUCACCCAUGUGAGGAUAUGGUUCGGUACUGUCCUGUCGCGUACUCCAGAAGGCACGUGUU [1st #36] (Eterna round: R97, puzzle: Exclusion 1)", "false"],
  ["AAAUUGUGAGGAUAUUCGAUGAACUCGGAGACGAGUUUAUCGGAGAAGGCACAUGAGGAUCACCCAUGUUCCUU [Mat - Exclusion 4 - JL Mod - D23] (Eterna round: R97, puzzle: Exclusion 4)", "false"],
  ["GAAAACGCAGAGGAUAUUUCAGAUCAAAGCUGCAAAGAAGGCUGCACAUGAGGAUCACCCAUGUGGUCUUUAAA [Mod of Quesina - Jieux - Exclusion 6] (Eterna round: R97, puzzle: Exclusion 6)", "false"],
  ["AGGGAACAUGAGGAUCACCCAUGUGAGGAUAUACAAAAGAAAAGAAAAGAAAGAAGAAGUAGAAGGUACAAGAA [Neferka] (Eterna round: R96, puzzle: Exclusion 1)", "false"],
  ["GAGUUAGCGUGUGGAAUAUACAUGAGGAUCACCCAUGUUAGCUUAUAUAUUGCUCGUCUUAUAACAACAAUUAACUG [Mod JX-Electric-eye3] (Eterna round: R97, puzzle: Sensor, turn-off variant 1)", "true"],
  ["CGGUCGUCCUCAGGAUAUACAUGAGGAUCACCCAUGUUUCUAGGAUCGGUCGUCCGGUCGGUGGUGUAGAAGGGAGGGUGGCUG [random 2, A 18%] (Eterna round: R96, puzzle: Exclusion NG 2)", "true"],
  ["CCUAAACAUGAGGAUCACCCAUGUGAGGAUAUGCACACCACAACAUGCGGUUGAGGGUGCAGAAGGCAUAUGAG [Eternabot (L1) Solution 60] (Eterna round: R97, puzzle: Exclusion 1)", "false"],
  ["GGUCUUCAAGUCAGGAUAUCGUAUAAUAGAUAUAACGAGAAGGGACAUGAGGAUCACCCAUGUCGUCUCAUCAG [Ex4 #21] (Eterna round: R97, puzzle: Brourd's mod of Exclusion 4)", "false"],
  ["GGCCGUAAUAAGGAUAUCACUAGCUUCGGCUAGUGAGAAGGUAUUACAUGAGGAUCACCCAUGUGAUUAGGCCA [E6/5-B1] (Eterna round: R97, puzzle: Exclusion 6)", "false"],
  ["UAAUGUAUAUAGGAUAUCUAGCUGGAAACAGCUAGAGAAGGAUGUACAUGAGGAUCACCCAUGUAAAUCUCAAU [Ex6/12-B1] (Eterna round: R97, puzzle: Exclusion 6)", "false"],
  ["CUCCUACUUGUAGGAUAUCAGAGAUAACAUGAGGAUCACCCAUGUUGGGUCAUCAACUCAGUCGGUGAGAAGGACAGAAGUUGG [Eternabot solution 42] (Eterna round: R96, puzzle: Exclusion NG 2)", "true"],
  ["GAACUGAAGCAAAGCUUUAGUCGUACAUGAGGAUCACCCAUGUAGGAUAUGGUAGGCAAAGCUUACUAGAAGGACAGAGUGAUC [Mat - Exclusion NG 3 - Mod of JL - D70] (Eterna round: R96, puzzle: Exclusion NG 3)", "true"],
  ["AUCCGUUGUAUAGGAUAUAAGUGUAAACUGUACUUAGAAGGAUACAUGAGGAUCACCCAUGUUGUAAUAGAUGAGCAUAGAGCA [Eternabot solution 6] (Eterna round: R96, puzzle: Exclusion NG 1)", "false"],
  ["UGCGGUAGAGGAUAUACGUAGAAAUAGAUUCAUGUAAAACUACAUGAGGAUCACCCAUGUAGAAGGCUAUCGCU [JL-ex2-4.27 Eli mod] (Eterna round: R97, puzzle: Exclusion 2)", "false"],
  ["AUAAAUCAUGUAGGAUAUGCGUGGCGAAGCUAUGCAGAAGGACAUGAGGAUCACCCAUGUGCUUCCGUCUGCGUACAGACGGAA [Mat - Exclusion NG 1 - Mod of JL - D35] (Eterna round: R96, puzzle: Exclusion NG 1)", "true"],
  ["GCCGUUAAGGUAGGAUAUGCUCGGUCUGUGCGUGCAGAAGGGCUGGUCGGCGACUUGAGGAUCACCCAAGUGGUCUUAUAGAAA [Mutated MS2 EX1.21] (Eterna round: R96, puzzle: Exclusion NG 1)", "true"]
]}
